# credit: paper PMC8277928

Assign Selectivity Index (SI), MDA-MB-231 compared to PNT-2 to each entry below.
- System: MDA-MB-231 breast adenocarcinoma cells
- PROTOCOL_TEXT: MTT cytotoxicity (chemosensitivity) assay, 96 h
- Assay type: cell-based, human
- EXPERIMENTAL_CONTEXT: IC50 PNT-2 divided by IC50 MDA-MB-231; * = minimum SI value
Form field (numeric): enter value without unit.

# input compound: N.N.O=C([O-])C1(C(=O)[O-])CCC1.[Pt+2] [CARB, carboplatin, reference compound] ; wanted: its Selectivity Index (SI), MDA-MB-231 compared to PNT-2
0.8

Please give the result for [NH2][Pt]([NH2])([Cl])[Cl] [CDDP, cisplatin, reference compound] too.
2.8

Now consider O=C1[O][Pt]2([NH][C@@H]3CCCC[C@H]3[NH]2)[O]C1=O [OXA, oxaliplatin, reference compound] and answer again.
0.5
